B1: Twister Ribozyme (parent)
chain: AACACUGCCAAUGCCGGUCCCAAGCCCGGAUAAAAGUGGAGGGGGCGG

Variants of: B1
Assay: self-cleavage, relative activity (ratio to wild type); higher = more cleavage; co-transcriptional
Label MET when self-cleavage >= 0.2; otherwise NOT MET.

Req: Determine whether measured self-cleavage meets or exceeds 0.2 for AACCCUGCCAAUGCCGCUCCCAAGCCCGGAUAAAAGUGGAGGGGGCGG [A4C G17C]
Resp: NOT MET

Req: Another variant to check: AACUCUGCCAAUGCCGGUCCCAAGCCCGGAGAAAAGUGGAGGGGGCGG [A4U U31G]
Resp: NOT MET

Req: Another variant to check: AACACUGCCAAUGCCGGUCCCAAACCCGGAUAAAAGUGGAGGGGGCGC [G24A G48C]
Resp: NOT MET

Req: Another variant to check: AACACUGCCAAUGCCGGUCCCAAGCCCGGAUGAAAGUUGAGGGGGCGG [A32G G38U]
Resp: MET

Req: Another variant to check: AACACUGCCAAUGCCGGUCCCAUGCUCGGAUAAAAGUGGAGGGGGCGG [A23U C26U]
Resp: NOT MET

Req: Another variant to check: AACAUUGCCUAUGCCGGUCCCAAGCCCGGAUAAAAGUGGAGGGGGCGG [C5U A10U]
Resp: MET

Req: Another variant to check: UACACUGCCAAUGCCGGUCCCAAGCCCGGAUAAGAGUGGAGGGGGCGG [A1U A34G]
Resp: NOT MET

Req: Another variant to check: AACACUGCGAAUGCCGGUCCCUAGCCCGGAUAAAAGUGGAGGGGGCGG [C9G A22U]
Resp: NOT MET

Req: Another variant to check: AACAAUGCCAAUGCCCGUCCCAAGCCCGGAUAAAAGUGGAGGGGGCGG [C5A G16C]
Resp: NOT MET

Req: Another variant to check: AACACUGCCAAUGCCGGUCCCAAGCCCGGAUAAAAGUGGAGGGGACCG [G45A G47C]
Resp: MET

Req: Another variant to check: AACGCUGCCAAUGCCGGUCCCAAGCCCGGAUAAAAGGGGAGGGGGCGG [A4G U37G]
Resp: MET

Req: Another variant to check: AACACUGCCAAUGCCGGUCCCAAGCCCGGAUAAAAAUGGAUGGGGCGG [G36A G41U]
Resp: NOT MET

Req: Another variant to check: AACACUGCCAAUGCCGGUCCCAAGCCCGGAUAACAGUGGAGCGGGCGG [A34C G42C]
Resp: NOT MET
